Settings: buffer; pH 7.4; 200.0 µM
Would you mind telling me the reported log10 of solubility kinetic of each entry?
Scale: log10; quantity: solubility kinetic; unit before log: µg/mL

# COMPOUND, log10 of solubility kinetic
records = [
    ("CC(C)(C#CC(O)(c1ccccc1)c1ccccc1)N1CCCCC1", 1.67),
    ("COc1ccc(-c2cc(C(=O)NC3CCCC3)c3ccccc3n2)cc1", 0.67),
    ("COc1ccccc1CCNC(=O)Cc1cccs1", 1.57),
]

Quick batch: log10 of solubility kinetic for everything below.
1. Cc1c(Cl)cccc1NC(=O)Cc1cccs1
2. NC(=O)COC(=O)C1CSC2(c3ccc(F)cc3)CCC(=O)N12 (stereo not given)
3. COc1ccc(/C(N)=N/OC(=O)c2ccc(OC)c([N+](=O)[O-])c2)cc1OC
4. CCn1c(=O)c2sccc2n(CC(=O)NC2CCCC2)c1=O
5. Cc1ccc(N2C(=O)C(Cl)=C(N3CCOCC3)C2=O)c(C)c1
6. CN(C)c1ccc(NC(=O)c2cnsn2)cc1

Result:
[1.05, 1.69, -0.22, 1.66, 1.56, 1.48]

Give me log10 of solubility kinetic for each of these compounds, listed below.
1. CCCCNC(=O)Nc1nc2ccc(CC)cc2s1
2. CCC(C)C(NC(N)=O)C(=O)NC1CCC(C)CC1 (stereo not given)
3. COc1cccc(SCC(=O)N2CCN(c3ccccc3)CC2)c1
4. N/C(=N\OC(=O)CCC1CCCC1)c1ccc(Cl)cc1
5. CC(=O)Nc1ccc(N2Cc3ccccc3C2)cc1

Result:
-0.15
1.53
1.53
0.08
1.27

---

Conditions: buffer; pH 7.4; 200.0 µM
Assignment: determine reported solubility kinetic for the given molecules.
Give bare numbers, in µg/mL.

Previously resolved entries follow.
# RECORD SMILES, EXPERIMENTAL VALUE
data = [
    ("Cc1ccc2[nH]c(CNC(=O)C3CCCCC3)cc2c1", 19.6),
    ("COc1cccc(C(=O)NCCSc2c(C)[nH]c3ccccc23)c1OC", 16.1),
]

// next entry
Query: Data request, read-out solubility kinetic, for O=C1CC(=O)N(c2cccc(Br)c2)C(=O)N1
Result: 39.2

---

Conditions: buffer; pH 7.4; 200.0 µM
OBSERVED PROPERTY: solubility kinetic (µg/mL)
One number for each entry, in µg/mL.

# RECORD SMILES, EXPERIMENTAL VALUE
records = [
    ("Cc1nccn1CCOc1ccc(Cl)cc1.O=C(O)C(=O)O", 45),
]

Could you now look at the following molecule, please?
Query: Requested read-out: solubility kinetic. Entry: Clc1ccc(Oc2ccccc2)c2ncccc12
Result: 10.7

---

Settings: buffer; pH 7.4; 200.0 µM
For each of the compounds below, state its solubility kinetic.
One number for each entry, in µg/mL.

Record excerpt, results attached:
# COMPOUND, EXPERIMENTAL VALUE
data = [
    ("Cc1ccc(NC(=O)CCCn2c(=O)oc3ccccc32)c(O)c1", 12.6),
    ("Cc1ccc(C(=O)OC(C)C(=O)Nc2ccc3c(c2)OCO3)c(O)c1 (stereo unspecified)", 9.5),
    ("N#Cc1ccc(NC(=O)Cn2cnc([N+](=O)[O-])c2)cc1", 37.4),
    ("COC(=O)c1c(-c2c(Cl)cccc2Cl)noc1NC(=O)N(C)C", 49.3),
    ("CCOc1ccc(NC(=O)c2nsc(Cl)c2Cl)cc1", 1.3),
]

Shifting focus to the compound that follows.
Query: Please give the measured solubility kinetic for this compound: CCN(CC)c1ccc(NC(=O)CSC(=O)c2ccccc2)cc1.O=S(=O)(O)O
Result: 4.1

---

Conditions: buffer; pH 7.4; 200.0 µM
What solubility kinetic was measured for each of the following?

# COMPOUND, EXPERIMENTAL VALUE
records = [
    ("COc1ccc(CNC(=O)COC(=O)C2(C)CC2(Cl)Cl)cc1 (stereo not given)", "> 51.9 µg/mL"),
    ("CC(C)(C)OC(=O)NCCC(=O)N/N=C/c1ccc2nccnc2c1", "> 51.5 µg/mL"),
    ("CCC1=C([N+](=O)[O-])C(c2ccc3c(c2)OCO3)NC(=O)N1 (stereo not given)", "> 43.7 µg/mL"),
]

Fill in solubility kinetic for each of the 2 compounds listed.
1. COc1ccc(/C=C/C(=O)OCC(=O)NC(C)CCc2ccccc2)cc1 (stereo not given)
2. COc1ccc(-n2c(C)cc(=O)[nH]c2=O)cc1

Result:
3.7 µg/mL
> 34.8 µg/mL

Working through the 6 compounds below one at a time, give solubility kinetic for each.
1. CN(C(=O)CCl)C1CCCc2ccccc21 (stereo not given)
2. Cn1cccc1C(=O)NCc1ccc(Cl)cc1
3. OCCCNCc1ccc(N(c2ccccc2)c2ccccc2)cc1
4. Cc1ccc(Nc2nc(-c3ccncc3)nc3ccccc23)cc1
5. O=C(CN1C(=O)NC2(CCCCCCC2)C1=O)Nc1ccc(OC(F)F)cc1
6. Cc1cccc(OCC(=O)NC2CCCC2)c1

Result:
1. 32.1 µg/mL
2. > 37.3 µg/mL
3. 39 µg/mL
4. < 0.2 µg/mL
5. 20.8 µg/mL
6. 31.5 µg/mL

I need solubility kinetic for every entry listed below, if you could help.
1. O=P(Nc1ccccc1)(Oc1ccccc1)Oc1ccccc1
2. Nc1nccc(/C=C/c2ccc(Cl)cc2)n1
3. COc1ccc(/C=C/C2=CCN(C)CC2)cc1.Cl
4. CCC(=O)N1CCc2cc(S(=O)(=O)N3CCCC3)ccc21
5. NS(=O)(=O)c1ccc(CCNS(=O)(=O)c2ccc(Cl)s2)cc1

Result:
1. < 0.7 µg/mL
2. 3.2 µg/mL
3. > 39.9 µg/mL
4. 7.3 µg/mL
5. > 57.1 µg/mL

---

Details: buffer; pH 7.4; 200.0 µM
Bucketed by reported solubility kinetic, buckets being low: < 10 µg/mL; medium: ≥ 10 µg/mL and < 40 µg/mL; high: ≥ 40 µg/mL

Query: Bin this entry: CCN(c1cccc(C)c1)C1C(=O)c2ccccc2N1C(C)=O (centres undefined)
Result: high

Query: Hi there! Could you help me figure out the category for COc1ccc(CCC(=O)NC(C)c2ccccc2)cc1OC (centres undefined) please?
Result: high

Query: Class? Entry: Cc1ccc(CN2CCN(Cc3ccc(OC(C)C)cc3)CC2CCO)o1 (centres undefined)
Result: high

---

Task for the reader: assign each of the following molecules its reported solubility kinetic.
Settings: buffer; pH 7.4; 200.0 µM
Numbers only, in µg/mL.

# MOLECULE, READOUT UNITS, solubility kinetic
rows = [
    ("O=C(NC(=S)Nc1ccc2[nH]c(=O)[nH]c2c1)c1ccccc1F", "µg/mL", 1.1),
]

// for each molecule in input: emit solubility kinetic
1. CC(C)CC(=O)N1CCN(Cc2ccc(Cl)cc2)CC1
2. CCCN(Cc1ccccc1)C(=S)Nc1ccc(F)cc1
3. Cc1cc(Cl)ccc1NC(=O)C1CCN(S(C)(=O)=O)CC1

Result:
1: 28.4; 2: 39.2; 3: 10.8

Consider the following items and state reported solubility kinetic for each.
1. CC(C)=C(NC(=O)c1ccccc1)C(=O)Nc1cccc(C)c1
2. Cc1cccc(C)c1NC(=O)COC(=O)c1ccc([N+](=O)[O-])o1
3. CN(C)S(=O)(=O)c1cc(C(=O)NCc2ccccc2)c(Cl)cc1Cl
4. COc1ccc2oc(C(=O)OCC(=O)N3CC(C)OC(C)C3)c(C)c2c1 (centres undefined)

Result:
1. 2.8
2. 34.3
3. 47.1
4. 51.6

Quick one: give me solubility kinetic for each item below, same order please.
1. O=[N+]([O-])c1ccc(N2CCN(CC3CCCCC3)CC2)cc1
2. O=C(c1ccco1)N1CCCC(Nc2ccc3c(c2)OCCO3)C1 (centres undefined)
3. COc1ccc(NC(=O)Cn2c([N+](=O)[O-])cnc2C)cc1Cl
4. O=C1NC(c2ccc(Cl)cc2)Oc2ccccc21 (centres undefined)
5. Cl.Clc1ccc(CN2CCNCC2)cc1

Result:
1: 2.1; 2: 44.7; 3: 2; 4: 1.7; 5: 22.6

---

Conditions: buffer; pH 7.4; 200.0 µM
Please go through the items and note down their log10 solubility kinetic.
A difference of one corresponds to tenfold solubility kinetic; all values are log10 with solubility kinetic in µg/mL.

# COMPOUND, EXPERIMENTAL VALUE
measured = [
    ("Cc1ccc(NC(=O)N2CCC(c3ccccc3)C2)cc1C (stereo not given)", 0.41),
    ("Cc1ccc(-c2csc3ncnc(N4CCN(C)CC4)c23)cc1C", 1.66),
    ("O=C(O)CC(NC(=O)CCc1ccccc1)c1ccc(Cl)cc1 (stereo not given)", 1.65),
    ("Brc1ccc(-c2noc(-c3ccccn3)n2)o1", 1.03),
    ("CN(C)c1ccc(-c2nc3cc(N)ccc3o2)cc1", 1.15),
]

Please state log10 solubility kinetic for every compound in the list that follows.
1. CC(C(=O)NC1CCCCCC1)c1ccc([N+](=O)[O-])cc1 (stereo not given)
2. Cc1ccc(N=C2NC(=O)/C(=C/c3cccn3C)S2)c(C)c1
3. CSc1nc(-c2ccccc2F)c(C#N)c(=O)n1C
4. COc1ccc(C(=O)CSc2cc(C)[nH]c(=O)n2)cc1
5. O=C(O)c1ccccc1C(=O)Nc1c(-c2ccccc2)nc2ccccn12
6. O=C1C/C(=C\c2c(F)cccc2Cl)N2CCC1CC2

Result:
1: 0.85; 2: 0.08; 3: 1.32; 4: 1.37; 5: 1.70; 6: 1.60

Query: Report log10 solubility kinetic for COc1ccc(Oc2ncccc2NC(=O)c2cccc(C)c2C)cc1 please.
Result: 0.77
